Target: baculovirus-expressed ALK (Homo sapiens)
Construct: host or cells: baculovirus expression system
Sequence (Q9UM73 19-1620): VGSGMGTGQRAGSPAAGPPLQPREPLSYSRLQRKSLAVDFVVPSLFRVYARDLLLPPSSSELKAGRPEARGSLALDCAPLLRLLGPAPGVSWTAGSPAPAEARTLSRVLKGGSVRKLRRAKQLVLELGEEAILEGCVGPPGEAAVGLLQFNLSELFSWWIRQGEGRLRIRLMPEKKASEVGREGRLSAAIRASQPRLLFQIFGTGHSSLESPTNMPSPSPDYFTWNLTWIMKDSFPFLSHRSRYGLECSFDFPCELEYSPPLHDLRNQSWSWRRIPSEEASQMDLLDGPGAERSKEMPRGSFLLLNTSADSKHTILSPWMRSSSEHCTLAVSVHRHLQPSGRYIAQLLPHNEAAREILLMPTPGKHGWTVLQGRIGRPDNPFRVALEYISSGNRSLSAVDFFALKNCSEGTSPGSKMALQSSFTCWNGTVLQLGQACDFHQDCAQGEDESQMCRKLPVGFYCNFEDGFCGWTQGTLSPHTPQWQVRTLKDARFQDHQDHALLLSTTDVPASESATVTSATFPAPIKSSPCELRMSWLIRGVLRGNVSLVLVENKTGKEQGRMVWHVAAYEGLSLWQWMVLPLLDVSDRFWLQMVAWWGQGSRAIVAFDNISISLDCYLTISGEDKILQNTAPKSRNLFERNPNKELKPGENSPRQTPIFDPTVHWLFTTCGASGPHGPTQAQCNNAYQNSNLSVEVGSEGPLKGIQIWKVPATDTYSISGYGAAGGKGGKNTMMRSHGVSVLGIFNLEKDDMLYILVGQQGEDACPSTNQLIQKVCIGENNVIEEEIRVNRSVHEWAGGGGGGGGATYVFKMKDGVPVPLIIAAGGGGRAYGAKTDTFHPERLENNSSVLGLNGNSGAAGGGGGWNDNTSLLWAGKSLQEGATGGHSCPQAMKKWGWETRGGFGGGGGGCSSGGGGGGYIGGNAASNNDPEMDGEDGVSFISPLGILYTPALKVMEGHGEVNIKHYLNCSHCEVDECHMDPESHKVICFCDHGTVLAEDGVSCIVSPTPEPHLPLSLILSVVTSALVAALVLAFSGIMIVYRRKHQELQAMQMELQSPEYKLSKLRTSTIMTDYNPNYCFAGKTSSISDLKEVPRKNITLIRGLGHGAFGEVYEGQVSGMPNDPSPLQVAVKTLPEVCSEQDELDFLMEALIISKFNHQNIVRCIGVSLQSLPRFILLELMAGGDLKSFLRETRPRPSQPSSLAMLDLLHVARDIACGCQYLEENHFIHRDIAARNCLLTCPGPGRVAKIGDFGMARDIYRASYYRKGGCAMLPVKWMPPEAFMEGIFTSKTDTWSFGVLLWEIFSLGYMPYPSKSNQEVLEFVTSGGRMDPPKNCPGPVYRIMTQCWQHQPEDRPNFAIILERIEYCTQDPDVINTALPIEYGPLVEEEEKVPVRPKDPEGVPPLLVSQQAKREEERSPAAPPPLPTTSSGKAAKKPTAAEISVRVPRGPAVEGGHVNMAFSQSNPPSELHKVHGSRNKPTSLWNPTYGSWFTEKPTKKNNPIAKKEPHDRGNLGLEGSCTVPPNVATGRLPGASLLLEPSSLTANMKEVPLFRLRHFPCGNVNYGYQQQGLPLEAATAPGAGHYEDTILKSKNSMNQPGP
Experiment: ALK Kinase Assay (ELISA-type, time-resolved fluorescence)
Assay type: biochemical
Details: ALK kinase inhibition, 1 μM ATP; read-out: ALK Activity
IC50 for assorted molecules

Known results for molecules:
COMPOUND SMILES | TEST TARGET | RECORDED MEASUREMENT
CCNC(=O)c1cccc(F)c1Nc1nc(Nc2ccc3c(c2)NC(=O)CCC3(C)C)ncc1Cl | baculovirus-expressed ALK (Homo sapiens) | < 100 nM
Cc1cnc(-c2sccc2Nc2nc(Nc3ccc4c(c3)CCOC(=O)N4C)ncc2Cl)o1 | baculovirus-expressed ALK (Homo sapiens) | 100 to 1000 nM
CNC(=O)c1c(Cl)sc(Cl)c1Nc1nc(Nc2ccc3c(c2)CN(C)C(=O)CC3)ncc1Cl | baculovirus-expressed ALK (Homo sapiens) | < 100 nM
CCN1CCCOc2cc(Nc3ncc(Cl)c(Nc4ccc(N5CCOCC5)cc4OC)n3)ccc21 | baculovirus-expressed ALK (Homo sapiens) | < 100 nM
C#CCNC(=O)c1cccc(F)c1Nc1nc(Nc2ccc3c(c2)N(C(=O)CN2CCCC2)CCCC3(C)C)ncc1Cl | baculovirus-expressed ALK (Homo sapiens) | 100 to 1000 nM

Entry COc1cc2c(cc1Nc1ncc(Cl)c(Nc3ccc(N4CCOCC4)cc3OC)n1)CCN(CC(=O)N1CCOCC1)CC2 has what IC50? < 100 nM

Entry CNC(=O)c1cccc(F)c1Nc1nc(Nc2ccc3c(c2)CCOC(=O)N3C)ncc1Cl has what IC50? < 100 nM

###

IC50 for assorted compounds
Target: c-Met (cytoplasmic domain) (Homo sapiens, UniProt P08581)
Construct: 10 ng/mL c-Met (cytoplasmic domain, Invitrogen Corporation #PV3143); purchased Invitrogen Corporation PV3143
Sequence (P08581 956-1390 limits assumed): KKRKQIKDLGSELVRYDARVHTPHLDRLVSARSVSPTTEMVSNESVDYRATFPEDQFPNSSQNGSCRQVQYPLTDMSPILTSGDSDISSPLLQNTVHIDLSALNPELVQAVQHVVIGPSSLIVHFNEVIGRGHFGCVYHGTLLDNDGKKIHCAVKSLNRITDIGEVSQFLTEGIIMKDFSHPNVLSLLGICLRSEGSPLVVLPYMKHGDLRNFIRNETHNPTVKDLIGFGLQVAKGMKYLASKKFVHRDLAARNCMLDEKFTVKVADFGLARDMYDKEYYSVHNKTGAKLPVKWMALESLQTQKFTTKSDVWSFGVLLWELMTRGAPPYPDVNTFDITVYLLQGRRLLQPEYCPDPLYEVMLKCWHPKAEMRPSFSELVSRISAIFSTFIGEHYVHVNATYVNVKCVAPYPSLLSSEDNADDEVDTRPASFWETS
Assay: c-Met Kinase Assay (same methods as for ALK, with modifications)
Format: biochemical
Conditions: c-Met kinase inhibition, 1 μM ATP; read-out: cMet Activity
Description: Briefly, each 96-well plate was coated with 100 μL/well of 10 μg/mL substrate (phospholipase C-γ) in Tris-buffered saline (TBS). […] The reaction was initiated by adding enzyme (30 ng/ml ALK) and was allowed to proceed at 37° C. for 15 minutes. Detection of the phosphorylated product was performed by adding 100 μl/well of Eu-N1 labeled PT66 antibody (Perkin Elmer # AD0041). Data analysis was performed using ActivityBase (IDBS, Guilford, UK). […]

Known results for compounds:
COMPOUND SMILES | TEST TARGET | RECORDED MEASUREMENT
CNC(=O)c1scc(C)c1Nc1nc(Nc2ccc3c(c2)C(C)(C)NC(=O)CC3)ncc1Cl | c-Met (cytoplasmic domain) (Homo sapiens, UniProt P08581) | < 100 nM
CCN1C(=O)CCCc2c1ccc(Nc1ncc(Cl)c(N[C@@H]3CCCC[C@H]3N(C)S(C)(=O)=O)n1)c2OC | c-Met (cytoplasmic domain) (Homo sapiens, UniProt P08581) | > 10000 nM
CNC(=O)c1cccc(F)c1Nc1nc(Nc2ccc3c(c2)N(C(=O)N2CCCC2)CCCC3(C)C)ncc1Cl | c-Met (cytoplasmic domain) (Homo sapiens, UniProt P08581) | 100 to 1000 nM
COCCN1C(=O)CCC(C)(C)c2ccc(Nc3ncc(Cl)c(N[C@H]4[C@@H](C(N)=O)[C@@H]5C=C[C@H]4C5)n3)cc21 | c-Met (cytoplasmic domain) (Homo sapiens, UniProt P08581) | 100 to 1000 nM
CN([C@@H]1CCCC[C@H]1Nc1nc(Nc2ccc3c(c2)C(C)(C)CCC(=O)N3)ncc1Cl)S(C)(=O)=O | c-Met (cytoplasmic domain) (Homo sapiens, UniProt P08581) | 1000 to 10000 nM

Entry CC(=O)N(C)Cc1ccccc1Nc1nc(Nc2ccc3c(c2)CCOC(=O)N3C)ncc1Cl has what IC50? 1000 to 10000 nM

Entry O=C1CCCc2ccc(Nc3ncc(Cl)c(Nc4ccccc4S(=O)(=O)N4CCCC4)n3)cc2N1 has what IC50? < 100 nM
